Numbers sourced from paper PMC11202230.

Substrate: NC(=O)C[C@H](N)C(=O)O
MEASUREMENT_NOTES: Nessler reagent assay of ammonia, Michaelis-Menten fit
Assay type: biochemical, Thermococcus litoralis
CONDITION_LABEL: pH 10, 80 °C, 0.5-18.0 mM L-asparagine, free enzyme
ATTRIBUTE_MEASURED: Km (mM)
Give bare numbers, in mM.

Request: Note down Km recorded for L-asparaginase Tli10209 (Thermococcus litoralis DSM 5473; D50G) (protein) MSEKRKLERRGAEDMKRILIIGTGGTIASAKTDAGFKSVLTIDEILEKAGIKLKNGYEIDTRNILNIDSTLIQPEDWERIAKEVYKALEDYDGIVITHGTDTLAYTASMLTFMIRGINKPVVLTGSMRPVTEEESDAPRNLKAAIRFAMEDVSGIFVAFMDKIMLGCRTSKIRALGLNAFMSINYPDVAYVKGEEVIYNLPQKRFKPKGEPVLDTKYEPRVVFIRLTPGLDGNAIDALVKAGYRGIVLEGYGAGGIPYRKRDILSKIREITPQIPVVMTTQALYDGVDLTKYEVGRKALEAGIIPAKDMTKETTITKLMWALGHTKNVEEVKEIMHTNYADEIEG
Response: 9.03
